Each record here notes measured inhibition at 10 µM.
# target: 5-HT reuptake (Rattus norvegicus)
# Sequence (P31652 whole entry): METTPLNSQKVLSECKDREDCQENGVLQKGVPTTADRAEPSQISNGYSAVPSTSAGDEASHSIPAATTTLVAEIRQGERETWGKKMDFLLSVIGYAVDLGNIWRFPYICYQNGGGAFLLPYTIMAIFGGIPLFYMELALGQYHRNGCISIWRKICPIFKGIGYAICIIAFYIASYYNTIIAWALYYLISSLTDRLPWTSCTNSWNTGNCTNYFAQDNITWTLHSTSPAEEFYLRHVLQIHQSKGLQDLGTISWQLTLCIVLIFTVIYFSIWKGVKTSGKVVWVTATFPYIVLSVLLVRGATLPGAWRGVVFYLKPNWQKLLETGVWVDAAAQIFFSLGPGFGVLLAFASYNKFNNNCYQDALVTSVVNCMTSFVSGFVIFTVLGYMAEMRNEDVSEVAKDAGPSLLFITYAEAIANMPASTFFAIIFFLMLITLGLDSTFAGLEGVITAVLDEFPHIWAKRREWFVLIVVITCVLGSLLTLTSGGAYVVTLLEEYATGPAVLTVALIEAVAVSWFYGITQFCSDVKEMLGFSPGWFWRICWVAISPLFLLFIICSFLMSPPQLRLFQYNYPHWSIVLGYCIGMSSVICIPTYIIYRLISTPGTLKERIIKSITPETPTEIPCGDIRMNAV
# experimental.protocol: biochemical
# condition.summary: read-out: Inhibition of 5-HT reuptake (% inhibition at 10 μmol./l), 10 μmol./l; rat synaptosomes
# answer = value followed by unit

CN(C)CC1=C(c2cccnc2)c2ccc(C(F)(F)F)cc2C1 :: 47%
CN(C)CC1=C(c2cccnc2)c2ccccc2[S+]([O-])CC1 (centres unmarked) :: 35%
CN(C)CC1Cc2cc(C(F)(F)F)ccc2C1(O)c1cccnc1 (centres unmarked) :: 61%

Task: Look at this compound and give its reported inhibition at 10 µM. CN(C)CC1=C(c2cccnc2)c2ccccc2CC1
Output: 56%

Task: Look at this compound and give its reported inhibition at 10 µM. CN(C)CC1=C(c2cccnc2)c2ccccc2SCC1
Output: 60%
